Source: ChEMBL document CHEMBL3885881

# Organism: Rattus norvegicus
# Experimental Details: DrugMatrix - Regimen: Daily Repeat
# Format: toxicity, organism-based, Sprague-Dawley
# Parameters: regimen Daily Repeat, gender Male, age 6-8 weeks
# Test Conditions: in vivo, po, 0 mg/kg, 72 h, tissue Plasma, route oral GAVAGE, dose level Control, time 3 day, vehicle 100 % WATER
Endpoint: ALBUMIN (G/DL)
Answers are plain numbers, in G/DL.

Hello, I would appreciate it if you could give ALBUMIN for each entry below.
1. CN1[C@@H]2CC[C@H]1C[C@@H](OC(=O)C(CO)c1ccccc1)C2 (stereo not given in full) [ATROPINE]
2. O.O.O.O.O.O.[Cl-].[Cl-].[Sr+2] [STRONTIUM CHLORIDE HEXAHYDRATE]
3. CC(C)NCC(O)c1ccc(NS(C)(=O)=O)cc1 (stereo not given) [SOTALOL]
4. CS(=O)(=O)c1ccc([C@@H](O)[C@@H](CO)NC(=O)C(Cl)Cl)cc1 [THIAMPHENICOL]
5. CN(C)CCOC(c1ccccc1)c1ccccc1 [DIPHENHYDRAMINE]

3.95
4.32
4.05
4.32
4.02

* * *

Exercise: state measured MEAN CORPUSCULAR HEMOGLOBIN for each of the compounds provided.
# Species on record: Rattus norvegicus
# Experimental Details: DrugMatrix - Regimen: Daily Repeat
# Format: toxicity, organism-based, Sprague-Dawley
# Set-up: regimen Daily Repeat, gender Male, age 6-8 weeks
# Test Conditions: in vivo, po, 1500 mg/kg, 120 h, tissue Blood, route oral GAVAGE, dose level High, time 5 day, vehicle .5 % CMC
Write the numeric value and append its unit.

Completed entries (count: 4):
CN(C)[C@@H]1C(O)=C(C(N)=O)C(=O)[C@@]2(O)C(O)=C3C(=O)c4c(O)ccc(Cl)c4[C@@](C)(O)[C@H]3C[C@@H]12 [CHLORTETRACYCLINE] ... 24.83 pg
COC(=O)Nc1nc2ccc([S+]([O-])c3ccccc3)cc2[nH]1 (stereo not given) [OXFENDAZOLE] ... 24.53 pg
CC(C)Oc1ccc2c(=O)c(-c3ccccc3)coc2c1 [IPRIFLAVONE] ... 24.23 pg
CC(C)=CCC/C(C)=C/CO [GERANIOL] ... 24.53 pg

Read the next record carefully.
What does the data say about its MEAN CORPUSCULAR HEMOGLOBIN? Entry: O=c1cnn([C@@H]2O[C@H](CO)[C@@H](O)[C@H]2O)c(=O)[nH]1 [6-AZAURIDINE]
23.37 pg

* * *

# Organism: Rattus norvegicus
# Experimental Details: DrugMatrix - Regimen: Daily Repeat
# Format: toxicity, organism-based, Sprague-Dawley
# Set-up: regimen Daily Repeat, gender Male, age 6-8 weeks
# Test Conditions: in vivo, po, 0 mg/kg, 120 h, tissue Plasma, route oral GAVAGE, dose level Control, time 5 day, vehicle .5 % CMC
Exercise: state measured POTASSIUM for each of the molecules provided.
Give bare numbers, in MEQ/L.

Cn1c(=O)c2c(ncn2CC(O)CO)n(C)c1=O (stereo not drawn) [DYPHYLLINE] ... 6.85
NC1CCN(c2nc3c(cc2F)c(=O)c(C(=O)O)cn3-c2ccc(F)cc2F)C1 (stereo not drawn) [TOSUFLOXACIN] ... 6.7
Clc1ccccc1CN1CCc2sccc2C1 [TICLOPIDINE] ... 6.18
CN/C(=N/CCSCc1nc[nH]c1C)NC#N [CIMETIDINE] ... 5.63
COc1ccc(C2C(=O)c3ccccc3C2=O)cc1 [ANISINDIONE] ... 6.18
CN(C/C=C/C#CC(C)(C)C)Cc1cccc2ccccc12 [TERBINAFINE] ... 6.7

Hello, I would appreciate it if you could give POTASSIUM for each entry below.
1. O=C1Nc2ccc(Cl)cc2C(c2ccccc2Cl)=NC1O (stereo not drawn) [LORAZEPAM]
2. NCCCC(O)(P(=O)(O)O)P(=O)(O)O [ALENDRONIC ACID]
3. COc1cc2nc(N3CCN(C(=O)c4ccco4)CC3)nc(N)c2cc1OC [PRAZOSIN]
4. CCN(CC)CCOc1ccc(/C(=C(/Cl)c2ccccc2)c2ccccc2)cc1 [ENCLOMIPHENE]
5. CC(C(=O)O)c1ccc2oc(-c3ccc(Cl)cc3)nc2c1 (stereo not drawn) [BENOXAPROFEN]
6. O=C1C(CC[S+]([O-])c2ccccc2)C(=O)N(c2ccccc2)N1c1ccccc1 (stereo not drawn) [SULFINPYRAZONE]
7. CN(C)[C@@H]1C(O)=C(C(N)=O)C(=O)[C@@]2(O)C(O)=C3C(=O)c4c(O)ccc(Cl)c4[C@@](C)(O)[C@H]3C[C@@H]12 [CHLORTETRACYCLINE]

6.57
6.18
6.57
6.82
6.98
6.57
6.85

* * *

# Species on record: Rattus norvegicus
# Experimental Details: DrugMatrix - Regimen: Daily Repeat
# Format: toxicity, organism-based, Sprague-Dawley
# Design: regimen Daily Repeat, gender Male, age 6-8 weeks
# Test Conditions: in vivo, po, 2000 mg/kg, 72 h, tissue Blood, route oral GAVAGE, dose level High, time 3 day, vehicle .5 % CMC
Endpoint: HEMATOCRIT (%)
One number for each entry, in %.

Hello, I would appreciate it if you could give HEMATOCRIT for each entry below.
1. CC1(C)S[C@@H]2[C@H](NC(=O)[C@H](N)c3ccccc3)C(=O)N2[C@H]1C(=O)O [AMPICILLIN]
2. COc1cc2nc(N3CCN(C(=O)c4ccco4)CC3)nc(N)c2cc1OC [PRAZOSIN]
3. CN(C/C=C/C#CC(C)(C)C)Cc1cccc2ccccc12 [TERBINAFINE]
4. O=C1Nc2ccc(Cl)cc2C(c2ccccc2Cl)=NC1O (stereo unspecified) [LORAZEPAM]
5. CN/C(=N/CCSCc1nc[nH]c1C)NC#N [CIMETIDINE]
6. NC1CCN(c2nc3c(cc2F)c(=O)c(C(=O)O)cn3-c2ccc(F)cc2F)C1 (stereo unspecified) [TOSUFLOXACIN]

1: 35.27; 2: 33.2; 3: 41.1; 4: 38.6; 5: 36.93; 6: 40.45

* * *

# Organism: Rattus norvegicus
# Experimental Details: DrugMatrix - Regimen: Daily Repeat
# Assay type: toxicity, organism-based, Sprague-Dawley
# Parameters: regimen Daily Repeat, gender Male, age 6-8 weeks
# Test Conditions: in vivo, po, 0 mg/kg, 72 h, tissue Plasma, route oral GAVAGE, dose level Control, time 3 day, […]
Endpoint: ALBUMIN (G/DL)
Give bare numbers, in G/DL.

Completed entries (count: 3):
COc1cc(N)c(Cl)cc1C(=O)NC1CCN(CCCOc2ccc(F)cc2)CC1OC (centres undefined) [CISAPRIDE] ... 3.75
CO[C@H]1/C=C/O[C@@]2(C)Oc3c(C)c(O)c4c(O)c(c(/C=N/N5CCN(C6CCCC6)CC5)c(O)c4c3C2=O)NC(=O)/C(C)=C\C=C\[C@H](C)[C@H](O)[C@@H](C)[C@@H](O)[C@@H](C)[C@H](OC(C)=O)[C@@H]1C [RIFAPENTINE] ... 4.25
CC(C)(C)NC(=O)[C@H]1CC[C@H]2[C@@H]3CC[C@H]4NC(=O)C=C[C@]4(C)[C@H]3CC[C@]12C [FINASTERIDE] ... 3.77

Read the next record carefully.
What does the data say about its ALBUMIN? Entry: Clc1ccc(COC(Cn2ccnc2)c2ccc(Cl)cc2Cl)cc1 (centres undefined) [ECONAZOLE]
4.07

* * *

Exercise: state measured TOTAL PROTEIN for each of the compounds provided.
# Organism: Rattus norvegicus
# Experimental Details: DrugMatrix - Regimen: Daily Repeat
# Assay type: toxicity, organism-based, Sprague-Dawley
# Design: regimen Daily Repeat, gender Male, age 6-8 weeks
# Test Conditions: in vivo, po, 0 mg/kg, 120 h, tissue Plasma, route oral GAVAGE, dose level Control, time 5 day, vehicle .5 % CMC

Completed entries (count: 4):
O=C1C(CC[S+]([O-])c2ccccc2)C(=O)N(c2ccccc2)N1c1ccccc1 (stereo not given) [SULFINPYRAZONE] ... 6.08 G/DL
Cn1c(=O)c2c(ncn2CC(O)CO)n(C)c1=O (stereo not given) [DYPHYLLINE] ... 6.02 G/DL
Clc1ccccc1CN1CCc2sccc2C1 [TICLOPIDINE] ... 6.55 G/DL
COc1cc2nc(N3CCN(C(=O)c4ccco4)CC3)nc(N)c2cc1OC [PRAZOSIN] ... 6.08 G/DL

Read the next record carefully.
What does the data say about its TOTAL PROTEIN? Entry: O=C1CN=C(c2ccccc2Cl)c2cc([N+](=O)[O-])ccc2N1 [CLONAZEPAM]
6.02 G/DL

* * *

Exercise: state measured EOSINOPHIL for each of the compounds provided.
# Species: Rattus norvegicus
# Experimental Details: DrugMatrix - Regimen: Daily Repeat
# Format: toxicity, organism-based, Sprague-Dawley
# Design: regimen Daily Repeat, gender Male, age 6-8 weeks
# Test Conditions: in vivo, sc, 0 mg/kg, 72 h, tissue Blood, route subcutaneous, dose level Control, time 3 day, […]

Hello, I would appreciate it if you could give EOSINOPHIL for each entry below.
1. O=C(Nc1ccc(Br)cc1)c1cc(Br)cc(Br)c1O [TRIBROMSALAN]
2. CC(C)(C)CC(C)(C)c1ccc(OCCOCC[N+](C)(C)Cc2ccccc2)cc1.[Cl-] [BENZETHONIUM CHLORIDE]
3. Oc1c(Cl)cc(Cl)c(Cl)c1Cc1c(O)c(Cl)cc(Cl)c1Cl [HEXACHLOROPHENE]
4. CCC(=O)O[C@]1(C(=O)CCl)[C@@H](C)C[C@H]2[C@@H]3CCC4=CC(=O)C=C[C@]4(C)[C@@]3(F)[C@@H](O)C[C@@]21C [CLOBETASOL PROPIONATE]
5. CCN(CC)CCOCCC1=CCC2CC1C2(C)C (stereo not given) [MYRTECAINE]

["0.33%", "0.67%", "0.67%", "0.33%", "0%"]
